Data origin, for the record: ChEMBL document CHEMBL5537144

assay: Cytotoxicity against human RPE-1 cells assessed as inhibition of cell viability incubated for 72 hrs by MTT assay; type: toxicity, cell-based; settings: RPE-1 cells (TERT-RPE1)
property label: IC50 at 72 h
Answer as a quantity: numeral, then unit.

Previously resolved entries follow.
C[C@@H](O[C@@H]1O[C@@H]2CO[C@@H](c3ccccc3)O[C@@H]2[C@H](O)[C@H]1OCc1ccc(F)cc1)c1cc(C(F)(F)F)cc(C(F)(F)F)c1
251 µM
C[C@@H](O[C@H]1O[C@H](CO)[C@@H](O)[C@H](N)[C@H]1OCc1ccc(F)cc1)c1cc(C(F)(F)F)cc(C(F)(F)F)c1
146 µM
C[C@@H](O[C@H]1O[C@@H]2CO[C@@H](c3ccccc3)O[C@H]2[C@H](N)[C@H]1OCc1ccc(F)cc1)c1cc(C(F)(F)F)cc(C(F)(F)F)c1
92.3 µM

Now examine the next entry.
Q) Given the molecule C[C@@H](O[C@H]1OCCN(Cc2n[nH]c(=O)[nH]2)[C@H]1c1ccc(F)cc1)c1cc(C(F)(F)F)cc(C(F)(F)F)c1 [APREPITANT] , what is its reported IC50 at 72 h?
A) 176 µM
